target: T1, hCD137 (FXa digested) (human, UniProt Q07011 24-186); assay: SPR, 10 uM ADP
T1 construct: Factor Xa digestion and Protein A removed the Fc; also called human CD137 extracellular domain
T1 sequence (Q07011 other isoform, or with tags, fused parts or gaps limits assumed): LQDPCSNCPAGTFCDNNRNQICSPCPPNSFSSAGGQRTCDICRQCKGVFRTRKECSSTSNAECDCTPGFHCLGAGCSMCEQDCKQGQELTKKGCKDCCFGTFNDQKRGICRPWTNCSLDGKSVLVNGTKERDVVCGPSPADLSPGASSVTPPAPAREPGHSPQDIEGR
Reported Property: binding amount (RU)

{"columns": ["Binder", "Reported Property", "Result Unit", "Readout Value"],
 "data": [
  ["dBBAT042-P253 (antibody, human IgG1, lambda, V domains shown) VH: EVQLVESGGDLVKPGGGLRLSCAASGFTFSSHTMNWVRQAPGKGLEWISSISSRSNYKSYADSVKGRFTISRDNAKNSLYLQMNSLRAEDTAVYYCARYGHKNMHNWVFDYWGQGTLVTVSS VL: QSALTQPPSASGSPGQTVTISCTGTSSDVGFYNYVSWYQQHPGKAPKLMIYEVSKRPSGVPDRFSGSKSGNTASLTVSGLQAEDEADYFCSTYRYDQNVAFGGGTKLTVLG", "binding amount", "RU", 19.1],
  ["dBBAT021-P253 (antibody, human IgG1, lambda, V domains shown) VH: EVQLVESGGDLVKPGGGLRLSCAASGFTFSSYTMNWVRQAPGKGLEWVSSISSRSNYRDYADSVKGRFTISRDNAKNSLYLQMNSLRAEDTAVYYCARYGGKNILNWVFDYWGQGTLVTVSS VL: QSALTQPPSASGSPGQTVTISCTGTSSDVGFYNYVSWYQQHPGKAPKLMIYEVSKRPSGVPDRFSGSKSGNTASLTVSGLQAEDEADYFCSSYSSDTHVGFGGGTKLTVLG", "binding amount", "RU", 19.6],
  ["dBBAT119-P253 (antibody, human IgG1, lambda, V domains shown, also called dBBAT119H-P253/dBBAT119L-LamLib) VH: EVQLVESGGDLVKPGGGLRLSCAASGFTFSTFTMNWVRQAPGKGLEWVSSISSRSNYKSYADSVKGRFTISRDNAKNSLYLQMNSLRAEDTAVYYCARYGAKNFMNWVFDYWGQGTLVTVSS VL: QSALTQPPSASGSPGQTVTISCTGTSTDVGFYNYVSWYQQHPGKAPKLMIYYTSKRPSGVPDRFSGSKSGNTASLTVSGLQAEDEADYFCSSYRYDHQVSFGGGTKLTVLG", "binding amount", "RU", 67.2],
  ["dBBAT037-P253 (antibody, human IgG1, lambda, V domains shown) VH: EVQLVESGGDLVKPGGGLRLSCAASGFTFSGYTMNWVRQAPGKGLEWVSSISSRSNYIDYADSVKGRFTISRDNAKNSLYLQMNSLRAEDTAVYYCARFGLKNSLNWVFDYWGQGTLVTVSS VL: QSALTQPPSASGSPGQTVTISCTGTSTDVGFYNYVSWYQQHPGKAPKLMIYETSKRPSGVPDRFSGSKSGNTASLTVSGLQAEDEADYFCSSYSGASILLFGGGTKLTVLG", "binding amount", "RU", 62.9]
]}
